// provenance: the Immune Epitope Database (IEDB)

# target of assay: HLA-B*57:01
# measurement description: IEDB peptide-MHC binding, purified MHC/competitive/fluorescence; filed as Kd, often an IC50 or EC50 that approximates it; bounds were set here for any values at or beyond the usual limits of such assays
# particulars: source organism: Entamoeba histolytica HM-1:IMSS
pKd: −log10 of the molar value.
parameter measured: pKd

Req: Reported pKd, sequence IGKMNKHYK : ____
Resp: ≤ 4.70

---

Quick list: Kd per entry.
# target of assay: HLA-A*24:02
# measurement description: IEDB peptide-MHC binding, purified MHC/competitive/radioactivity; filed as Kd, often an IC50 or EC50 that approximates it; bounds were set here for any values at or beyond the usual limits of such assays
# particulars: source organism: Dengue virus 3 Martinique/1243/1999
The reply should contain only the number, in µM.

{"item sequence": "QWFFDLPLPW", "uom": "µM", "Kd": 0.0748}

Req: Find Kd (HLA-A*24:02) for the entry WYGMEIRPI
Resp: 3.02

---

# target of assay: HLA-A*30:01
# measurement description: IEDB peptide-MHC binding, purified MHC/competitive/fluorescence; filed as Kd, often an IC50 or EC50 that approximates it; bounds were set here for any values at or beyond the usual limits of such assays
# particulars: source organism: Vibrio vulnificus YJ016
pKd: −log10 of the molar value.
parameter measured: pKd

Req: For SVFELSNFA , what is its reported pKd?
Resp: ≤ 5.30

---

# target of assay: HLA-A*02:19
# measurement description: IEDB peptide-MHC binding, purified MHC/competitive/fluorescence; filed as Kd, often an IC50 or EC50 that approximates it; bounds were set here for any values at or beyond the usual limits of such assays
# particulars: source organism: Cryptosporidium parvum Iowa II
pKd: −log10 of the molar value.
parameter measured: pKd

Req: Consider the sequence shown here: KIVPLPPMY What is its recorded pKd?
Resp: ≤ 4.70

---

# target of assay: HLA-A*01:01
# measurement description: IEDB peptide-MHC binding, purified MHC/direct/fluorescence; filed as Kd, often an IC50 or EC50 that approximates it; bounds were set here for any values at or beyond the usual limits of such assays
# particulars: source organism: Mycobacterium tuberculosis
parameter measured: Kd

{"item sequence": "IPAPGLGAL", "observed measurement": "≥ 20 µM"}
{"item sequence": "MTSGSSSGF", "observed measurement": "≥ 5 µM"}
{"item sequence": "AVFDSFVER", "observed measurement": "≥ 20 µM"}
{"item sequence": "RGRIGRTYL", "observed measurement": "≥ 20 µM"}
{"item sequence": "VPRDRNGTF", "observed measurement": "≥ 20 µM"}

Here is another sequence to look at.
Req: Using the record for RIRSERPAF , report its Kd.
Resp: ≥ 20 µM

---

# target of assay: HLA-A*02:16
# measurement description: IEDB peptide-MHC binding, purified MHC/direct/fluorescence; filed as Kd, often an IC50 or EC50 that approximates it; bounds were set here for any values at or beyond the usual limits of such assays
# particulars: source organism: Rio Mearim virus
pKd: −log10 of the molar value.
parameter measured: pKd

Req: For DWMERIEDF , what is its reported pKd?
Resp: ≤ 4.70

---

# target of assay: HLA-B*14:02
# measurement description: IEDB peptide-MHC binding, purified MHC/competitive/fluorescence; filed as Kd, often an IC50 or EC50 that approximates it; bounds were set here for any values at or beyond the usual limits of such assays
# particulars: source organism: Brucella melitensis bv. 1 str. 16M
pKd: −log10 of the molar value.
parameter measured: pKd

Req: I would be grateful if you could share the reported pKd for TTRAVNMEV .
Resp: ≤ 5.30
